// provenance: ChEMBL document CHEMBL1201862

tested on: OVCAR-8; experiment: NCI tumour cell line growth inhibition, 48 h
Active and inactive are the calls of the source. No stated cut-off is given here; in the data, active = GI50 up to about 1.1 µM and inactive = higher.
Result category, one only: active, inactive

INSERT INTO assay_data (compound, cat) VALUES
  ('O=C(O)c1cc(/C=C/c2ccc(O)c(O)c2)ccc1O', 'inactive'),
  ('CCOP(=O)(OCC)OC1CC(n2cc(C)c(=O)n(C)c2=O)OC1CO[Si](C)(C)C(C)(C)C (stereo not drawn)', 'inactive');

Q: Which result was noted for this compound in the test: `CCOC(=O)CCC1(CCC(=O)OCC)CCCCCCCCC(CCC(=O)OCC)(CCC(=O)OCC)C(=O)C1=O`
Result: inactive

Q: Outcome logged for C=C(COC(C)=O)CC(/C=C(\C)CCC=C(C)C)OC(C)=O (stereo not drawn) in this assay:
Result: inactive

Q: Outcome? `CCOC(=O)Cc1csc(N/N=C2\C(=O)Nc3ccccc32)n1`
Result: inactive

Q: Assay result, entry `COC(=O)n1c(CBr)c(Br)c2ccccc21` — outcome?
Result: inactive

Q: What classification did `Nc1cc2ncnn2c(SCC(=O)N/N=C/C(Br)=C\c2ccccc2)n1` end up with in this test?
Result: inactive

Q: // param item: COC(=O)C1C(O)C(C)C(O)C(C)(O)/C=C\C=C(C)C(=O)Nc2c(C)c(OC(C)=O)c3c(c2O)C(=O)C(C)=C2OCOC(=C23)C(C)=CC(C)(O)C(O)C(C)C1OC(C)=O (stereo not drawn) ; yields the recorded call
Result: inactive

Q: # outcome recorded in this test, key = `Cn1c(N)nc(-c2ccc(Cl)cc2)c1SSc1c(-c2ccc(Cl)cc2)nc(N)n1C`
Result: inactive

Q: For this compound, state the assay outcome: `O=C1CCSC(=S)N1c1ccc(Br)c(Cl)c1`
Result: inactive

Q: What classification did `COC(=O)CCCc1ccc2c(c1)CC1(Cc3ccccc3C1)C2` end up with in this test?
Result: inactive

Q: Fill in: this test's call for `N=C(N)NS(=O)(=O)c1ccc(Nc2c3ccccc3nc3ccc(C(=O)Nc4ccc(S(N)(=O)=O)cc4)cc23)cc1` is ___
Result: inactive

Q: I'd appreciate the recorded outcome for CCOC(=O)CC[C@@H](NC(=O)c1ccc(N[C@@H]2c3cc4c(cc3C(c3cc(OC)c(O)c(OC)c3)C3C(=O)OC[C@@H]32)OCO4)cc1)C(=O)OCC (stereo partly drawn) from this test.
Result: active

Q: Please let me know the test result on file for `O=C(NC(=O)c1ccccc1[N+](=O)[O-])Nc1ccc(Oc2ncc(Cl)cn2)c(C(F)(F)F)c1` .
Result: active

Q: Would you mind telling me which call this test gave `COc1ccc(/C=C/c2nccc3ccccc23)cc1OC` ?
Result: inactive

Q: What is the recorded call for this compound in the test? `O=C1C=C/C(=C/[C@H]2SSC=C[C@]23C=CC(=O)C3)C1`
Result: inactive

Q: What did the test return for `O=C(c1ccc(Br)cc1)n1c2ccc(Br)cc2c2nc3ccccc3nc21` ?
Result: inactive

Q: Assay outcome for `Cc1nc2sccn2c1C(=O)NNC(N)=S` : what was it?
Result: inactive

Q: Would you mind telling me which call this test gave `CO[C@H]1C[C@H](O[C@H]2CC[C@]3(C=O)[C@H]4CC[C@]5(C)[C@@H](C6=CC(=O)OC6)CC[C@]5(O)[C@@H]4CC[C@]3(O)C2)O[C@H](C)[C@H]1O[C@@H]1O[C@H](CO)[C@@H](O)[C@H](O)[C@H]1O` ?
Result: active

Q: What call does the record list for `Oc1cccc(-c2cccc(O)n2)n1` ?
Result: inactive

* * *

test system: BT-549; assay: NCI tumour cell line growth inhibition, 48 h
Calls of active or inactive are those of the source. Cut-off read from the data, not from the text of the source: active = GI50 up to about 1.1 µM and inactive = higher.
In this exercise, the only acceptable responses are True for active, False for inactive

INSERT INTO measurements (molecule, cat) VALUES
  ('CC1=NN(c2nc(N)nc(/C(C#N)=C/c3ccccc3O)n2)C(C)(C)C1', 'False'),
  ('Oc1nncc2[nH]c(-c3ccccc3)cc12', 'False'),
  ('CC(C)C/C=C/C1=NN(c2cccc(S(=O)(=O)O)c2)C2(C1)SCC(=O)N2c1nc2ccccc2s1 (stereo not given)', 'False'),
  ('C#CCNCC(=O)O', 'False'),
  ('OC1CSCCCSCCSCCCSC1', 'False'),
  ('CC1=C[C@@H](C)C[C@]2(C)CC[C@H](O2)[C@]23CC[C@](C(=O)O)(C[C@H](O2)[C@@H]2O[C@@](C)(CC2=O)[C@@H](O)[C@H]2CC[C@@]4(CCC[C@@H](O4)[C@H](C)C(=O)O[C@H]4C[C@H]([C@]5(O)OCC[C@H](C)[C@@H]5O)O[C@H]4C=C1)O2)O3', 'False');

Q: Per the records of this test, what outcome belongs to `Cn1cnc(N)c(N=O)c1=O` ?
Result: False

Q: What outcome does the record of this test show for `O=C1CCSC(=S)N1c1ccc(Br)c(Cl)c1` ?
Result: False

* * *

system: OVCAR-5; test: NCI tumour cell line growth inhibition, 48 h
Activity calls are given as the source filed them. Rule as the data show it: active = GI50 up to about 1.1 µM and inactive = higher.
Reported property: GI50

INSERT INTO assay_data (compound, meas_value) VALUES
  ('Cc1nc2ccccc2c(=O)n1NC(=O)c1ccc(CS)cc1', '34.5 µM (inactive)'),
  ('COc1ccc(/C=C/c2nccc3ccccc23)cc1OC', '> 10 µM (inactive)'),
  ('C=C(CS(=O)(=O)c1ccccc1)[P+](c1ccccc1)(c1ccccc1)c1ccccc1', '33.9 µM (inactive)');

Q: Tell me the measured GI50 of `O=C(O)c1ccc(C(=O)O)c2c(C(=O)O)ccc(C(=O)O)c12` , please.
Result: > 100 µM (inactive)

Q: Can you look up the measured GI50 of `Cc1ccnc2nc(N)ccc12` for me?
Result: > 100 µM (inactive)

Q: What does the data say about its GI50? Entry: `FC(F)(F)C1(C(F)(F)F)O[Si]2(OC(C(F)(F)F)(C(F)(F)F)c3ccccc32)c2ccccc21`
Result: 14.5 µM (inactive)

Q: Fill blank: measured GI50 of the compound COC(=O)c1ccccc1NC(=O)/C(=N\NC(C)(C)C)C(C#N)c1nc(-c2ccc([N+](=O)[O-])cc2)cs1 (configuration not stated) is ____.
Result: > 100 µM (inactive)

* * *

test system: K562; assay: NCI tumour cell line growth inhibition, 48 h
The source made the active and inactive calls. Cut-off read from the data, not from the text of the source: active = GI50 up to about 1.1 µM and inactive = higher.
Items are presented alongside their recorded GI50.

See these solved cases before continuing.
INSERT INTO assay_data (compound, reported_property, meas_value) VALUES
  ('CN1CCC(OC(=O)Oc2ccccc2)(c2ccccc2)CC1', 'GI50', '24.7 µM (inactive)'),
  ('O=C(c1ccccc1)c1ccc(N2C(=O)/C(=C/Cc3ccco3)N=C2c2ccccc2)c(N2C(=O)/C(=C/Cc3ccco3)N=C2c2ccccc2)c1', 'GI50', '64.7 µM (inactive)');

Q: Which value of GI50 has been reported for CC(C)(C)OC(=O)NCCCCC1NC(=O)[C@@H]2Cc3c([nH]c4ccccc34)C(C3CCCCC3)N2C1=O (stereo partly drawn) in the records?
Result: 30.8 µM (inactive)

Q: Query: GI50; subject: `O=C(O)C(F)(F)C(F)(F)C(F)(F)C(F)(F)C(F)(F)C(F)(F)C(F)(F)C(F)(F)F`
Result: 27.1 µM (inactive)

Q: Requested read-out: GI50. Entry: CCOC(=O)C1(C(F)(F)F)N=C(CC)OC(N2CCOCC2)=N1 (stereo not drawn)
Result: > 100 µM (inactive)

Q: Query (compound): COC1=NN2C(OC)(c3ccccc3)c3c(-c4ccccc4)sc(-c4ccccc4)c3C2(c2ccccc2)S1 (stereo not drawn) ; field requested: GI50
Result: > 100 µM (inactive)

Q: Quick one: GI50 for `O/N=C1\CCc2cc3c(cc21)CCC3` ?
Result: > 100 µM (inactive)

Q: # get_value(readout='GI50', item= `Cc1ccc(C2=Nc3cc(C)c(Cl)cc3S(=O)(=O)NN2)cc1` )
Result: 36.3 µM (inactive)

Q: Param item = `COc1ccc2c(c1)/C(=C\c1c(C)nc3n1CCS3)C(=O)N2` ; retrieve measured GI50.
Result: 10.3 µM (inactive)

Q: Look at this compound and give its reported GI50. CC(C)(O)C1OCC(C2CCC3(C)C4=CCC5C(C)(C)C(O)CCC5(C)C4CCC23C)CC1O (stereo not drawn)
Result: 4.44 µM (inactive)

Q: What measured GI50 goes with O=C1C(Cl)C(c2cc3cc(Br)ccc3nc2Cl)N1c1ccc(F)c(Cl)c1 (stereo not drawn) ?
Result: 3.07 µM (inactive)

Q: Requested field: GI50. Item: Cc1ccc(O)c(C2=NNC(c3cccc(Br)c3)C2)c1 (stereo not drawn)
Result: 38 µM (inactive)

Q: Fill in the blank: the reported GI50 of `O=C(OCc1ccccc1)OOC(=O)OCc1ccccc1` is ____.
Result: > 100 µM (inactive)
